Values were extracted from ChEMBL document CHEMBL5523732.

# Test system: SARS-CoV-2
# Procedure Details: Antiviral activity against SARS CoV-2 Wuhan-Hu-1 infected in HEK293T cells incubated for 24 hrs
# Format: functional, organism-based
# Assay Context: Severe acute respiratory syndrome coronavirus 2, Wuhan-Hu-1, HEK-293T
The reader will find reported pEC50 values listed item by item below.
Would you please state pEC50, meaning minus log10 of the concentration in mol/L, as a bare number?

The examples below pair each entry with its known result.
>  <Compound>
CC(C)C[C@H](NC(=O)OC[C@@H]1CCC(=O)N1CC1CCCCC1)C(=O)N[C@@H](C[C@@H]1CCNC1=O)C(O)S(=O)(=O)O (some centres not stated)

>  <Measured Target>
SARS-CoV-2

>  <pEC50>
6.10

$$$$
>  <Compound>
CC(C)C[C@H](NC(=O)OCC1CC(=O)N(CC2CCCCC2)C1)C(=O)N[C@H](C=O)C[C@@H]1CCNC1=O (some centres not stated)

>  <Measured Target>
SARS-CoV-2

>  <pEC50>
6.89

$$$$
>  <Compound>
CC(C)C[C@H](NC(=O)OC[C@@H]1CCC(=O)N1Cc1cccc(F)c1)C(=O)N[C@@H](C[C@@H]1CCNC1=O)C(O)S(=O)(=O)O (some centres not stated)

>  <Measured Target>
SARS-CoV-2

>  <pEC50>
7.40

$$$$
>  <Compound>
CC(C)C[C@H](NC(=O)OC[C@@H]1CCC(=O)N1Cc1cccc(Cl)c1)C(=O)N[C@H](C=O)C[C@@H]1CCNC1=O

>  <Measured Target>
SARS-CoV-2

>  <pEC50>
6.96

$$$$
>  <Compound>
CC(C)C[C@H](NC(=O)OC[C@@H]1CCC(=O)N1CC1CCCCC1)C(=O)N[C@H](C=O)C[C@@H]1CCNC1=O

>  <Measured Target>
SARS-CoV-2

>  <pEC50>
6.12

$$$$
>  <Compound>
CC(C)C[C@H](NC(=O)OCC1CC(=O)N(CC2CC3C=CC2C3)C1)C(=O)N[C@@H](C[C@@H]1CCNC1=O)C(O)S(=O)(=O)O (some centres not stated)

>  <Measured Target>
SARS-CoV-2

>  <pEC50>
6.46

$$$$

Now consider a different compound.
Ask | Would you kindly share the measured pEC50 for CC(C)C[C@H](NC(=O)OC[C@@H]1CCC(=O)N1Cc1cccc(C(F)(F)F)c1)C(=O)N[C@H](C=O)C[C@@H]1CCNC1=O ?
Reply | 6.25

* * *

// pIC50 collected for Replicase polyprotein 1ab (Severe acute respiratory syndrome coronavirus 2)
Would you please state pIC50, meaning minus log10 of the concentration in mol/L, as a bare number?

The examples below pair each entry with its known result.
>  <Compound>
CC(C)C[C@H](NC(=O)OC[C@@H]1CCC(=O)N1Cc1cccc(C(F)(F)F)c1)C(=O)N[C@@H](C[C@@H]1CCNC1=O)C(O)S(=O)(=O)O (some centres undefined)

>  <pIC50>
6.11

$$$$
>  <Compound>
CC(C)C[C@H](NC(=O)OC[C@@H]1CCC(=O)N1CC1CCC(F)(F)CC1)C(=O)N[C@H](C=O)C[C@@H]1CCNC1=O

>  <pIC50>
6.26

$$$$
>  <Compound>
CC(C)C[C@H](NC(=O)OCC1CC(=O)N(Cc2ccccc2)C1)C(=O)N[C@@H](C[C@@H]1CCNC1=O)C(O)S(=O)(=O)O (some centres undefined)

>  <pIC50>
6.19

$$$$

Ask | Would you kindly share the measured pIC50 for CC(C)C[C@H](NC(=O)OCC1CC(=O)N(CC2CCCCC2)C1)C(=O)N[C@@H](C[C@@H]1CCNC1=O)C(O)S(=O)(=O)O (some centres undefined) ?
Reply | 6.43

Ask | # iterate: CC(C)C[C@H](NC(=O)OC[C@@H]1CCC(=O)N1Cc1ccco1)C(=O)N[C@@H](C[C@@H]1CCNC1=O)C(O)S(=O)(=O)O (some centres undefined)
Reply | 6.60

Ask | # iterate: CC(C)C[C@H](NC(=O)OCC1CCN(C[C@H]2C[C@H]3C=C[C@@H]2C3)C1=O)C(=O)N[C@H](C=O)C[C@@H]1CCNC1=O (some centres undefined)
Reply | 6.34

Ask | # iterate: CC(C)C[C@H](NC(=O)OC[C@@H]1CCC(=O)N1CCc1ccccc1)C(=O)N[C@H](C=O)C[C@@H]1CCNC1=O
Reply | 6.14

Ask | # iterate: CC(C)C[C@H](NC(=O)OC[C@@H]1CCC(=O)N1C[C@H]1C[C@@H]2CC[C@H]1C2)C(=O)N[C@H](C=O)C[C@@H]1CCNC1=O
Reply | 6.30
